- System: Acinetobacter baumannii
- experiment_description: MIC/MBC against clinical isolates (CLSI, alamar blue)
- recorded_conditions: Acinetobacter baumannii, Acinetobacter isolate NB32
Measured MBC values are reported for all entries that follow.

Use these answered entries as a reference point.
Q. Using the record for CO[C@@]1(NC(=O)Cc2cccs2)C(=O)N2C(C(=O)O)=C(COC(N)=O)CS[C@@H]21 [Cefoxitin] , report its MBC.
A. 256 µg/mL

Q. Continue with CC(C)(O/N=C(\C(=O)N[C@@H]1C(=O)N2C(C(=O)[O-])=C(C[n+]3ccccc3)CS[C@H]12)c1csc(N)n1)C(=O)O [Ceftazidime]
A. > 32 µg/mL

Q. Same thing, different compound: CO/N=C(\C(=O)N[C@@H]1C(=O)N2C(C(=O)[O-])=C(C[N+]3(C)CCCC3)CS[C@H]12)c1csc(N)n1 [Cefepime]
A. > 32 µg/mL

Q. Follow-up item: C[C@H]1COc2c(N3CCN(C)CC3)c(F)cc3c(=O)c(C(=O)O)cn1c23 [Levofloxacin]
A. 8 µg/mL

Next:
Q. # lookup: MBC of NC[C@H]1O[C@H](O[C@H]2[C@H](O)[C@@H](O[C@H]3O[C@H](CO)[C@@H](O)[C@H](N)[C@H]3O)[C@H](N)C[C@@H]2N)[C@H](N)C[C@@H]1O [Tobramycin]
A. 4 µg/mL

* * *

- Tested on: Stenotrophomonas maltophilia
- experiment_description: MIC/MBC against CF isolates (CLSI, alamar blue)
- recorded_conditions: Stenotrophomonas maltophilia, CF Stenotrophomonas isolate NB43
property_label: MBC

Q. If you can, please state the reported MBC value of NC[C@H]1O[C@H](O[C@H]2[C@H](O)[C@@H](O[C@H]3O[C@H](CO)[C@@H](O)[C@H](N)[C@H]3O)[C@H](N)C[C@@H]2N)[C@H](N)C[C@@H]1O [Tobramycin] .
A. > 32 µg/mL

Q. Quick one: CC(C)(O/N=C(\C(=O)N[C@@H]1C(=O)N2C(C(=O)[O-])=C(C[n+]3ccccc3)CS[C@H]12)c1csc(N)n1)C(=O)O [Ceftazidime]
A. > 32 µg/mL

Q. Note, next up: C[C@H]1COc2c(N3CCN(C)CC3)c(F)cc3c(=O)c(C(=O)O)cn1c23 [Levofloxacin]
A. 4 µg/mL

Q. Note, next up: CO/N=C(\C(=O)N[C@@H]1C(=O)N2C(C(=O)[O-])=C(C[N+]3(C)CCCC3)CS[C@H]12)c1csc(N)n1 [Cefepime]
A. > 32 µg/mL

In the following, a different molecule is considered.
Q. State the recorded MBC for this entry: CO[C@@]1(NC(=O)Cc2cccs2)C(=O)N2C(C(=O)O)=C(COC(N)=O)CS[C@@H]21 [Cefoxitin]
A. > 256 µg/mL

* * *

Entries and their MIC90
- System: methicillin-resistant Staphylococcus aureus (MRSA)
- experiment_description: Susceptibility (MIC/MBC) of MRSA clinical isolates
- Type: cell-based
- recorded_conditions: Staphylococcus aureus; MRSA isolates; read-out: MIC90

In the examples that follow, each entry is paired with its recorded MIC90.
Q. Name the reported MIC90 value associated with the molecule CCC[C@@H]1C[C@@H](C(=O)N[C@@H]([C@H]2O[C@H](SC)[C@H](O)[C@@H](O)[C@H]2O)[C@H](C)Cl)N(C)C1
A. > 64 µg/mL

Q. // query: C[C@H]1COc2c(N3CCN(C)CC3)c(F)cc3c(=O)c(C(=O)O)cn1c23
A. 32 µg/mL

Q. Lookup COc1cc(Cc2cnc(N)nc2N)cc(OC)c1OC
A. 0.5 µg/mL

Q. Next: C[C@H]1c2cccc(O)c2C(=O)C2=C(O)[C@]3(O)C(=O)C(C(N)=O)=C(O)[C@@H](N(C)C)[C@@H]3[C@@H](O)[C@@H]21
A. 4 µg/mL

Q. Same for NCc1ccc(S(N)(=O)=O)cc1 [Sulfamylon, mafenide acetate]
A. > 128 µg/mL

Note: attention shifts to another entry.
Q. Name the recorded MIC90 for Cc1cc(NS(=O)(=O)c2ccc(N)cc2)no1 .
A. 4 µg/mL

* * *

- Tested on: Pseudomonas aeruginosa
- experiment_description: MIC/MBC against CF isolates (CLSI, alamar blue)
- recorded_conditions: Pseudomonas aeruginosa, CF Pseudomonas isolate NB13
property_label: MBC

Known MBC results, listed for orientation:
Q. I'm curious: which MBC was measured for CO[C@@]1(NC(=O)Cc2cccs2)C(=O)N2C(C(=O)O)=C(COC(N)=O)CS[C@@H]21 tested on Pseudomonas aeruginosa?
A. > 256 µg/mL

Q. Could you do the same for CC(C)(O/N=C(\C(=O)N[C@@H]1C(=O)N2C(C(=O)[O-])=C(C[n+]3ccccc3)CS[C@H]12)c1csc(N)n1)C(=O)O , please?
A. 512 µg/mL

Further cases:
Q. Query the reported MBC for Pseudomonas aeruginosa; item: C[C@H]1COc2c(N3CCN(C)CC3)c(F)cc3c(=O)c(C(=O)O)cn1c23
A. 2 µg/mL

Q. Next compound up: NC[C@H]1O[C@H](O[C@H]2[C@H](O)[C@@H](O[C@H]3O[C@H](CO)[C@@H](O)[C@H](N)[C@H]3O)[C@H](N)C[C@@H]2N)[C@H](N)C[C@@H]1O
A. 4 µg/mL

* * *

The entries below are paired with their reported MIC50.
- System: Stenotrophomonas maltophilia
- experiment_description: MIC/MBC against CF isolates (CLSI, alamar blue)
- recorded_conditions: Stenotrophomonas maltophilia

A selection of reference data follows.
Q. API: value(readout= MIC50, system= Stenotrophomonas maltophilia, query= CC(C)(O/N=C(\C(=O)N[C@@H]1C(=O)N2C(C(=O)[O-])=C(C[n+]3ccccc3)CS[C@H]12)c1csc(N)n1)C(=O)O [Ceftazidime] )
A. > 32 µg/mL

Q. What about this compound? CO[C@@]1(NC(=O)Cc2cccs2)C(=O)N2C(C(=O)O)=C(COC(N)=O)CS[C@@H]21 [Cefoxitin]
A. > 256 µg/mL

Q. Next compound: C[C@H]1COc2c(N3CCN(C)CC3)c(F)cc3c(=O)c(C(=O)O)cn1c23 [Levofloxacin]
A. 2 µg/mL

# next compound below
Q. Give MIC50 (Stenotrophomonas maltophilia) of the following compound: CO/N=C(\C(=O)N[C@@H]1C(=O)N2C(C(=O)[O-])=C(C[N+]3(C)CCCC3)CS[C@H]12)c1csc(N)n1 [Cefepime]
A. > 32 µg/mL

* * *

Listing of entries alongside the reported MIC.
- System: Stenotrophomonas maltophilia
- experiment_description: MIC/MBC against CF isolates (CLSI, alamar blue)
- recorded_conditions: Stenotrophomonas maltophilia, CF Stenotrophomonas isolate NB44
Give the value in µg/mL but do not write µg/mL after it.

Q. Form field: reported MIC of C[C@H]1COc2c(N3CCN(C)CC3)c(F)cc3c(=O)c(C(=O)O)cn1c23 [Levofloxacin]
A. 8

Continuing:
Q. Which measured MIC value corresponds to CO[C@@]1(NC(=O)Cc2cccs2)C(=O)N2C(C(=O)O)=C(COC(N)=O)CS[C@@H]21 [Cefoxitin] ?
A. 256

* * *

- Tested on: Pseudomonas aeruginosa
- experiment_description: MIC/MBC of nanoemulsions against gram-negative isolates (CLSI, alamar blue)
- Format: cell-based
- recorded_conditions: Pseudomonas aeruginosa (n = 5)
property_label: % resistant (%)
Write it as a number; the unit % goes unstated.

# count of solved cases: 2
Q. Look up % resistant: NC[C@H]1O[C@H](O[C@H]2[C@H](O)[C@@H](O[C@H]3O[C@H](CO)[C@@H](O)[C@H](N)[C@H]3O)[C@H](N)C[C@@H]2N)[C@H](N)C[C@@H]1O [Tobramycin]
A. 0.0

Q. Please give the result for CO/N=C(\C(=O)N[C@@H]1C(=O)N2C(C(=O)[O-])=C(C[N+]3(C)CCCC3)CS[C@H]12)c1csc(N)n1 [Cefepime] too.
A. 0.0

Here is another compound to look at.
Q. Any idea what its % resistant is? The compound is CC(C)(O/N=C(\C(=O)N[C@@H]1C(=O)N2C(C(=O)[O-])=C(C[n+]3ccccc3)CS[C@H]12)c1csc(N)n1)C(=O)O [Ceftazidime]
A. 0.0

* * *

- Tested on: Pseudomonas aeruginosa
- experiment_description: MIC/MBC against CF isolates (CLSI, alamar blue)
- recorded_conditions: Pseudomonas aeruginosa, CF Pseudomonas isolate NB19
Reported MBC by item:
Express the result in µg/mL but write the number alone.

Worked set:
Q. Look up MBC: CC(C)(O/N=C(\C(=O)N[C@@H]1C(=O)N2C(C(=O)[O-])=C(C[n+]3ccccc3)CS[C@H]12)c1csc(N)n1)C(=O)O [Ceftazidime]
A. 1020

Q. Note, next up: NC[C@H]1O[C@H](O[C@H]2[C@H](O)[C@@H](O[C@H]3O[C@H](CO)[C@@H](O)[C@H](N)[C@H]3O)[C@H](N)C[C@@H]2N)[C@H](N)C[C@@H]1O [Tobramycin]
A. 16

Moving on to another compound below.
Q. Name the reported MBC value associated with the compound C[C@H]1COc2c(N3CCN(C)CC3)c(F)cc3c(=O)c(C(=O)O)cn1c23 [Levofloxacin]
A. 4

The reported numbers originate from patent US20100092526A1.
